- procedureSummary: Plasma concentration at the end of the 3 h i.p. infusion
- Type: in vivo
- measurementContext: male, FVB, mouse, ip, 10.5 mg/kg/h
measuredParameter: concentration at 3 h

Requested field: concentration at 3 h. Item: `COc1cc2c(cc1OC)CN(CCc1ccc(NC(=O)c3cc(OC)c(OC)cc3NC(=O)c3cnc4ccccc4c3)cc1)CC2` > 6 µM

* * *

// values below are reported concentration at 3 h
- procedureSummary: Plasma concentration at the end of the 3 h i.p. infusion
- Format: in vivo
- measurementContext: male, FVB, mouse, ip

molecule: COc1ccc(CCN(C)CCCC(C#N)(c2ccc(OC)c(OC)c2)C(C)C)cc1OC (stereo not drawn)
concentration at 3 h: 100 to 250 nM
//
molecule: CCCS(=O)(=O)Nc1ccc(F)c(C(=O)c2c[nH]c3ncc(-c4ccc(Cl)cc4)cc23)c1F
concentration at 3 h: 100 to 250 nM

Turning to the following molecule.
Fill in the blank: the reported concentration at 3 h of `C#Cc1cccc(Nc2ncnc3cc(OCCOC)c(OCCOC)cc23)c1` is ____. 100 to 250 nM
